Recorded ELISA Fc Control (RLU) by entry
molecular target: unrelated Fc-fused recombinant protein; assay: ELISA, negative control Fc protein
EXPERIMENTAL ENDPOINT: ELISA Fc Control (RLU)

[[record]]
binder = "ISOP193FR9P1A11 (designed binder, not shown: small tags and cut ends) LPAPKNLVVSRVTEDSARLSWTAPDAAFDSFAIQYWEGWEWGEAIVLTVPGSERSYDLTGLKPGTEYLVTIYGVKGGHWSRPLSAIFTT"
experimental_endpoint = "ELISA Fc Control (RLU)"
measured_result = 3520

[[record]]
binder = "ISOP193FR9P1A5 (designed binder, not shown: small tags and cut ends) LPAPKNLVVSRVTEDSARLSWTAPDAAFDSFEIYYIEPIAPGEAIVLTVPGSERSYDLTGLKPGTEYWVTIYGVKGCDWSDPLSAIFTT"
experimental_endpoint = "ELISA Fc Control (RLU)"
measured_result = 95100

[[record]]
binder = "ISOP193HR9P1H7 (designed binder, not shown: small tags and cut ends) LPAPKNLVVSRVTEDSARLSWTAPDAAFDSFEIYYREPHYGGEAIVLTVPGSERSYDLTGLKPGTEYWVTIYGVKVCLGSNPLSAIFTT"
experimental_endpoint = "ELISA Fc Control (RLU)"
measured_result = 49800

[[record]]
binder = "ISOP193BR9P1G3 (designed binder, not shown: small tags and cut ends) LPAPKNLVVSRVTEDSARLSWAQSNQQFDSFLIQYQESEKVGEAIVLTVPGSERSYDLTGLKPGTEYTVSIYGVVWQNWVAYNSNPLSAIFTT"
experimental_endpoint = "ELISA Fc Control (RLU)"
measured_result = 1360


The measurements presented in this section are drawn from patent US20220259289A1.
